Let's look at some molecules and their measured emission maximum.
Assay: solvent given as SMILES
Details: in CCCO

Q: Supply measured emission maximum of "COCCOCCOCCOc1ccc(OCCOCCOCCOC)c(C=O)c1" in your reply.
Result: 459 nm

Q: Supply measured emission maximum of ClC(Cl)=C1c2ccccc2C(C2(Cl)c3ccccc3C(=C(Cl)Cl)c3ccccc32)c2ccccc21 (centres undefined) in your reply.
Result: 443.26 nm

Q: Supply measured emission maximum of "COc1ccc(/C=C/c2ccc(-c3nnc(-c4ccc(-c5cc6ccccc6s5)cc4)o3)cc2)cc1" in your reply.
Result: 438 nm

Q: Supply measured emission maximum of "CN(C)c1ccc(/C=C/C=C2\CC/C(=C\c3ccc(N(C)C)cc3)C2=O)cc1" in your reply.
Result: 717 nm

Q: Supply measured emission maximum of "COCCOc1ccc(OCCOC)c(C=O)c1" in your reply.
Result: 458 nm

Q: Supply measured emission maximum of Cc1c2oc3c(C)c(N)cc(C(=O)NC4OC(=O)C(C(C)C)N(C)C(=O)CN(C)C(=O)C5CCCN5C(=O)C(C(C)C)NC4=O)c3nc-2c(C(=O)NC2OC(=O)C(C(C)C)N(C)C(=O)CN(C)C(=O)C3CCCN3C(=O)C(C(C)C)NC2=O)c(N)c1=O (centres undefined) in your reply.
Result: 658.62 nm

Q: Supply measured emission maximum of "CCN(CC)c1cccc2c1ccc1c(=O)oc(-c3ccc(C(F)(F)F)cc3)cc12" in your reply.
Result: 587 nm

Q: Supply measured emission maximum of "Nc1ccc(/C=C2\OC(=O)c3ccccc32)cc1" in your reply.
Result: 549.75 nm

Q: Supply measured emission maximum of "COc1ccc(C#Cc2ccc(C#N)cc2)cc1OC" in your reply.
Result: 425 nm

* * *

Assay: solvent given as SMILES
Details: in ClC(Cl)Cl
Let's look at some compounds and their measured emission maximum.
API: value field is a number in nm; no unit string.

Worked examples follow.
>>> endpoint_value("CCCCN1C(=O)c2ccc3c4ccc5c6c(ccc(c7ccc(c2c37)C1=O)c64)C(=O)N(CCCC)C5=O")
533
>>> endpoint_value("CC1=CC(C)=[N+]2C1=C(c1ccc(I)cc1)c1c(C)cc(C)n1[B-]2(Oc1ccccc1)Oc1ccccc1")
517.5
>>> endpoint_value("CN(C)c1[se]c(-c2ccc(Cl)cc2)nc1-c1ccccc1")
455
>>> endpoint_value("COc1ccc(-c2cc(-c3ccc(C)cc3)nc3c(C#N)c(N4CCCC4)nc(N)c23)cc1")
504
>>> endpoint_value("Cc1ccc(-c2ccc(/C=C/c3cccn3C)cn2)nc1")
476
>>> endpoint_value("F[B-]1(F)n2c(cc3c2-c2ccccc2CC3)C(c2ccc(I)cc2)=C2C=C3CCc4ccccc4C3=[N+]21")
647

Q: Supply measured emission maximum of CCCCC(CC)CN1C(=O)c2cccc3c(C#Cc4ccc(N(c5ccccc5)c5ccc(C#Cc6ccc7c8c(cccc68)C(=O)N(CC(CC)CCCC)C7=O)cc5)cc4)ccc(c23)C1=O (stereo unspecified) in your reply.
Result: 587

Q: Supply measured emission maximum of "CCCCC1(CCCC)c2ccccc2-c2ccc(-c3c4c(nc5ccccc35)-c3cc5c(cc3CC4)-c3nc4ccccc4c(-c4ccc6c(c4)C(CCCC)(CCCC)c4ccccc4-6)c3CC5)cc21" in your reply.
Result: 385

Q: Supply measured emission maximum of "COc1ccc(-n2c3ccccc3c3cc(/C=C/C(=C(C#N)C#N)c4ccccc4)ccc32)cc1" in your reply.
Result: 554

Q: Supply measured emission maximum of "CC1(C)CC[N+]2=c3c(cc4c(c31)Oc1cc3c(cc1C=4c1ccccc1C(=O)O)C(c1ccccc1C(=O)O)=c1cc4c5c(c1O3)C(C)(C)CC[N+]=5CCC4)CCC2" in your reply.
Result: 635

Q: Supply measured emission maximum of CCCCC(CC)CN1C(=O)c2cccc3c(C#Cc4ccc(N(c5ccccc5)c5ccccc5)cc4)ccc(c23)C1=O (stereo unspecified) in your reply.
Result: 582

Data provenance: the Deep4Chem optical property database
